procedure_summary: in vivo
study_conditions: in vivo, ip, intraperitoneal injection; Table 5; read-out: LD50 (mg/kg) by Kerber
quantity_name: LD50 (mg/kg)
Answer in mg/kg, number only, no unit symbol.

Recorded LD50, per entry:
[[record]]
molecule = "CC1(C)C=Cc2c(nc3ccccc3c2NCc2ccc(Cl)cc2)C1 [VIId]"
measured = 126

[[record]]
molecule = "CC(C)CNc1c2c(nc3ccccc13)CC(C)(C)CC2=O [Vq]"
measured = 158

[[record]]
molecule = "Nc1c2c(nc3c1CCC3)CCCC2 [Amiridine, amiridine, reference compound]"
measured = 52


Lookup: Would you mind telling me what LD50 value was observed for CC1(C)CC(=O)c2c(nc3ccccc3c2N)C1 [IVb] ?
Found: 70

Lookup: # iterate: CNc1c2c(nc3ccccc13)CC(C)(C)CC2=O [Vh]
Found: 65.8
